Measured IC50 (UniProtKB Q13946)
Sequence (Q13946 whole entry): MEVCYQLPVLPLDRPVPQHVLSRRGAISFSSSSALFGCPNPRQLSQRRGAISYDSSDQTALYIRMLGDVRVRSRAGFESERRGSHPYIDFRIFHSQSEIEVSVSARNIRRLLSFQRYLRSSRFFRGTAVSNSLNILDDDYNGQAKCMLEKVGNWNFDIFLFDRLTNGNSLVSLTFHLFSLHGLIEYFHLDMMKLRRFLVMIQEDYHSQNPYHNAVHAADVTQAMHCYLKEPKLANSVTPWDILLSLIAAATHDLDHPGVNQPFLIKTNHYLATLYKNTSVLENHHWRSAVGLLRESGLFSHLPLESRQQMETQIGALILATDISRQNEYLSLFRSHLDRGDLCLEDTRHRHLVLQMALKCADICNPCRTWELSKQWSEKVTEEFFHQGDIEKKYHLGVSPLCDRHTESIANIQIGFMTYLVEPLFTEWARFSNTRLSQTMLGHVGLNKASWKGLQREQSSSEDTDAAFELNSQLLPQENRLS
All answers are understood in nM, so give the number only.

# compound `O=C1Nc2c(Cl)ccc(O)c2C2(CCCCC2)N1` ; its IC50 = 10

# compound `NCCOc1ccc(Cl)c2c1C1(CCCCC1)NC(=O)N2` ; its IC50 = 1040

# compound CN(C)CC(O)COc1ccc(Cl)c2c1C1(CCCCC1)NC(=O)N2 (stereo unspecified) ; its IC50 = 400

# compound `O=C1Nc2c(Cl)ccc(OCCN3CCOCC3)c2C2(CCCCC2)N1` ; its IC50 = 30

# compound `O=C(O)COc1ccc(Cl)c2c1C1(CCCCC1)NC(=O)N2` ; its IC50 = 40

# compound `O=C1Nc2c(Cl)ccc(OCc3ccc(C(=O)O)o3)c2C2(CCCCC2)N1` ; its IC50 = 16

# compound `NCCOCCOc1ccc(Cl)c2c1C1(CCCCC1)NC(=O)N2` ; its IC50 = 1620

# compound `CN(C)CCCOc1ccc(Cl)c2c1C1(CCCCC1)NC(=O)N2` ; its IC50 = 1240

# compound `CCOC(=O)c1ccc(COc2ccc(Cl)c3c2C2(CCCCC2)NC(=O)N3)o1` ; its IC50 = 10

# compound `O=C1Nc2c(Cl)ccc(Cl)c2C2(CCCCC2)N1` ; its IC50 = 10

# compound `O=C1Nc2c(Cl)ccc(OCc3noc(O)n3)c2C2(CCCCC2)N1` ; its IC50 = 3.5

----------
- methodNotes: Clearance in rats when administered at a dose of 0.5 mg/kg i.v.
- Type: ADME, organism-based
- Parameters: dose 0.5 mg/kg, route intravenous
- conditionsUsed: rat, in vivo, iv
Exercise: for every item that follows, state its recorded clearance.
All answers are understood in mL/min/kg, so give the number only.

# molecule `O=C1Nc2c(Cl)ccc(OCCN3CCOCC3)c2C2(CCCCC2)N1` ; its clearance = 62.8

# molecule `O=C1Nc2c(Cl)ccc(OCCO)c2C2(CCCCC2)N1` ; its clearance = 33.6

# molecule `O=C(O)CNCCOc1ccc(Cl)c2c1C1(CCCCC1)NC(=O)N2` ; its clearance = 39.9

# molecule `O=C(O)COc1ccc(Cl)c2c1C1(CCCCC1)NC(=O)N2` ; its clearance = 39.4

----------
- assayTarget: Phosphodiesterase 1 (Homo sapiens, UniProt P54750+Q01064+Q14123)
- methodNotes: Inhibition of human PDE1 partially purified from THP-1 cells
- Type: cell-free
endpointName: log10 IC50 (log10 of the value in µM)
Values are log10 of IC50 in µM.

Value sought: log10 IC50, system Phosphodiesterase 1 (Homo sapiens, UniProt P54750+Q01064+Q14123), item `O=C(O)CNCCOc1ccc(Cl)c2c1C1(CCCCC1)NC(=O)N2` . Result: 1.47

Value sought: log10 IC50, system Phosphodiesterase 1 (Homo sapiens, UniProt P54750+Q01064+Q14123), item `O=C1Nc2c(Cl)ccc(OCCO)c2C2(CCCCC2)N1` . Result: 1.02

Value sought: log10 IC50, system Phosphodiesterase 1 (Homo sapiens, UniProt P54750+Q01064+Q14123), item `N#CCOc1ccc(Cl)c2c1C1(CCCCC1)NC(=O)N2` . Result: 0.77

Value sought: log10 IC50, system Phosphodiesterase 1 (Homo sapiens, UniProt P54750+Q01064+Q14123), item `O=C1Nc2c(Cl)ccc(OCCN3CCOCC3)c2C2(CCCCC2)N1` . Result: 1.46

Value sought: log10 IC50, system Phosphodiesterase 1 (Homo sapiens, UniProt P54750+Q01064+Q14123), item `NCCOc1ccc(Cl)c2c1C1(CCCCC1)NC(=O)N2` . Result: 1.52

Value sought: log10 IC50, system Phosphodiesterase 1 (Homo sapiens, UniProt P54750+Q01064+Q14123), item `O=C1Nc2c(Cl)ccc(OCc3noc(O)n3)c2C2(CCCCC2)N1` . Result: -0.21

Value sought: log10 IC50, system Phosphodiesterase 1 (Homo sapiens, UniProt P54750+Q01064+Q14123), item `CN(C)CCOc1ccc(Cl)c2c1C1(CCCCC1)NC(=O)N2` . Result: 1.28

Value sought: log10 IC50, system Phosphodiesterase 1 (Homo sapiens, UniProt P54750+Q01064+Q14123), item `CNCCOc1ccc(Cl)c2c1C1(CCCCC1)NC(=O)N2` . Result: 1.86

Value sought: log10 IC50, system Phosphodiesterase 1 (Homo sapiens, UniProt P54750+Q01064+Q14123), item `CCOC(=O)c1ccc(COc2ccc(Cl)c3c2C2(CCCCC2)NC(=O)N3)o1` . Result: 0.47

Value sought: log10 IC50, system Phosphodiesterase 1 (Homo sapiens, UniProt P54750+Q01064+Q14123), item `O=C1Nc2c(Cl)ccc(OCCCS(=O)(=O)O)c2C2(CCCCC2)N1` . Result: -0.19

Value sought: log10 IC50, system Phosphodiesterase 1 (Homo sapiens, UniProt P54750+Q01064+Q14123), item `O=C1Nc2c(Cl)ccc(OCc3ccc(C(=O)O)o3)c2C2(CCCCC2)N1` . Result: 0.20

Value sought: log10 IC50, system Phosphodiesterase 1 (Homo sapiens, UniProt P54750+Q01064+Q14123), item `O=C(O)COc1ccc(Cl)c2c1C1(CCCCC1)NC(=O)N2` . Result: 0.68
